Assignment: determine reported pKd for the given compounds.
Target: LFA-1 (CD18/CD11a) binding to ICAM-1 (Homo sapiens, UniProt P05107+P20701)
Construct: endogenous in cells
Sequence (P20701 26-1170): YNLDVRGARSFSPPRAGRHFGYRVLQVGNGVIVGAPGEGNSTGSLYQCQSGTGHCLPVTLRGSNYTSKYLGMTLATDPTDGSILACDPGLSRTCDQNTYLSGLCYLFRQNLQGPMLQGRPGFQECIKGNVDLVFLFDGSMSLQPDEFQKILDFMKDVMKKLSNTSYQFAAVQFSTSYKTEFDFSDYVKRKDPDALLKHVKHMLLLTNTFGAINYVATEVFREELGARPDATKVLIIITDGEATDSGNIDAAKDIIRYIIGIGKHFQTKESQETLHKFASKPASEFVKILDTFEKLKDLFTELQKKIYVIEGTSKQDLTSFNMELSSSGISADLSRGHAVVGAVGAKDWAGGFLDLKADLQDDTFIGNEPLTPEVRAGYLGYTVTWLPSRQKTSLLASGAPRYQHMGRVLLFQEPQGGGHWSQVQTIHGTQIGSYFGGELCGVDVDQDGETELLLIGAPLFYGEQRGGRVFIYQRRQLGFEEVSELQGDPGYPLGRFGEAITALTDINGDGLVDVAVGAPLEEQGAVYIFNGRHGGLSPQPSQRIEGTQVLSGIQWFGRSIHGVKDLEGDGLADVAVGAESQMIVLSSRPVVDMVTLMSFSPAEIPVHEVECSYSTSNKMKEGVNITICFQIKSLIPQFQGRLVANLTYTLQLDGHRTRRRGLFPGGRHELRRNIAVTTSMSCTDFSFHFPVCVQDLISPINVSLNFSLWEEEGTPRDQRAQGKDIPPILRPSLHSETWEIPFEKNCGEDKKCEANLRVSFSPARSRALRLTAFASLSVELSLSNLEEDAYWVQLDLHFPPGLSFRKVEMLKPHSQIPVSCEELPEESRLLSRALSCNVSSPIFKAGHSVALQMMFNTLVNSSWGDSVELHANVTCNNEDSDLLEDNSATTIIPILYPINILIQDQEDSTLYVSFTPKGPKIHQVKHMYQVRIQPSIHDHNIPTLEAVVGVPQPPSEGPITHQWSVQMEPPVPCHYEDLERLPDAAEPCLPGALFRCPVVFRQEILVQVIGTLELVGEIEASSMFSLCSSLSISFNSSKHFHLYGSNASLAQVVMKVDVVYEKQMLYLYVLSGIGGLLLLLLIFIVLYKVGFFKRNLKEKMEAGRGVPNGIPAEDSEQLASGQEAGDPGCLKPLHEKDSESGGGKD
Sequence (P05107 23-769): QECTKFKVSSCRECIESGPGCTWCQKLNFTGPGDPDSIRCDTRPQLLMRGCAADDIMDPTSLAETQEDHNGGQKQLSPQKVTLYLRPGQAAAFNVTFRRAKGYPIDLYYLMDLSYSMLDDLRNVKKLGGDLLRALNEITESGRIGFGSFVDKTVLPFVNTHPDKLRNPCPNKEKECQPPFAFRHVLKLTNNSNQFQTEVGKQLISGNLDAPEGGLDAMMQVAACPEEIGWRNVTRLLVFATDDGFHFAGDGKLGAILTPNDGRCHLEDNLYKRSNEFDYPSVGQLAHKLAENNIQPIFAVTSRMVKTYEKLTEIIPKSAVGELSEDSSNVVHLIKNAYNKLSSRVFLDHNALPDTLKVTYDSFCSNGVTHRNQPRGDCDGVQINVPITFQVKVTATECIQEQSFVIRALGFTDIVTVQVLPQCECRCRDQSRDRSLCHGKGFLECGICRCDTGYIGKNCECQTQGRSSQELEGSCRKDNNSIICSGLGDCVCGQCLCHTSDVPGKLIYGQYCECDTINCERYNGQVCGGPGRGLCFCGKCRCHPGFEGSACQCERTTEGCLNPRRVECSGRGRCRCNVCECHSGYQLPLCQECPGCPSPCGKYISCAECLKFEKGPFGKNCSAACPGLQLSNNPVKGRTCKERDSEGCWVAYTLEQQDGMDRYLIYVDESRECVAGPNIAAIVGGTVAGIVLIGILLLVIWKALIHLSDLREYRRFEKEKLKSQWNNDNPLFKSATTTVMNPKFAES
Assay: Assay to Determine Inhibition of LFA-1 Binding to ICAM-1
Conditions: immunoaffinity purified LFA-1 on plate-bound sICAM-1, 37° C. for 1 h, dose-response curve
Method: This assay protocol is designed to study the direct antagonism, by a test compound, of the interaction of the CAM, ICAM-1 with the Leukointegrin CD18/CD11a (LFA-1). […] LFA-1 binding to ICAM-1 is monitored by first incubating sICAM-1 at 40 μg/mL in Dulbecco's phosphate buffered saline with calcium and magnesium, additional 2 mM MgCl2 and 0.1 mM PMSF (Diluting Buffer) in a 96-well plate for 30 min at room temperature. […]
Answers are plain numbers, as −log10 of the molar value.

Solved cases (5 shown):
CC1(Cc2ccccc2)C(=O)N(c2cc(Cl)cc(Cl)c2)c2cccc(O)c21 (stereo not shown) [Example 16]	5.84
O=C1C(Cc2ccccc2)c2ccccc2N1c1cc(Cl)cc(Cl)c1 (stereo not shown) [Example 15]	5.30
CC1(Cc2ccc(Br)cc2)C(=O)N(c2cc(Cl)cc(Cl)c2)c2ncccc21 (stereo not shown) [Example 3]	6.43
CC1(Cc2cccc(Br)c2)C(=O)N(c2cc(Cl)cc(Cl)c2)c2cccc(O)c21 (stereo not shown) [Example 11]	5.60
O=C1C(Cc2ccc(Br)cc2)c2c(O)cccc2N1c1cc(Cl)cc(Cl)c1 (stereo not shown) [Example 17]	6.04

Count: 2. Required value per item: pKd.
1. CC1(Cc2ccc(C#N)cc2)C(=O)N(c2cc(Cl)cc(Cl)c2)c2ncccc21 (stereo not shown) [Example 5]
2. COc1cccc2c1C(Cc1cccc(Br)c1)C(=O)N2c1cc(Cl)cc(Cl)c1 (stereo not shown) [Example 10]

**Result**
1. 5.45
2. 5.97

Count: 2. Required value per item: pKd.
1. O=C(O)c1ccc2c(c1)N(c1cc(Cl)cc(Cl)c1)C(=O)C2Cc1ccc(Br)cc1 (stereo not shown) [Example 8]
2. O=C1C(Cc2ccccc2)c2c(O)cccc2N1c1cc(Cl)cc(Cl)c1 (stereo not shown) [Example 12]

**Result**
1. 5.31
2. 5.88

Count: 3. Required value per item: pKd.
1. O=C1C(Cc2ccc(Br)cc2)c2cc(F)ccc2N1c1cc(Cl)cc(Cl)c1 (stereo not shown) [Example 7]
2. COc1cccc2c1C(Cc1ccccc1)C(=O)N2c1cc(Cl)cc(Cl)c1 (stereo not shown) [Example 9]
3. CC1(Cc2ccc(Br)cc2)C(=O)N(c2cc(Cl)cc(Cl)c2)c2cccc(O)c21 (stereo not shown) [Example 6]

**Result**
1: 5.57; 2: 6.15; 3: 5.75
